System: KG-1
Assay: cell viability (% survival relative to DMSO control, bortezomib = 0%); higher = less cytotoxic
Conditions: 10000 nM; 72 h
QUANTITY_MEASURED: cell viability (%)
Respond with the bare value in %.

// below: answered compounds
O=C1O/C(=C/Br)CCC1c1cccc2ccccc12 (stereo unspecified)
56.6
O=C(O)c1cc(Cl)cc(Cl)c1O
96.8
CCCCCCCCCCCC(=O)c1c(O)c(C(=O)CCCCCCCCCCC)c(O)c(C2CC(c3ccc(O)cc3)Oc3cc(O)ccc32)c1O (stereo unspecified)
81.8
O=C(O)C(=O)CBr
106
CCCCCCCCCCC[C@@H](C[C@@H]1OC(=O)[C@H]1CCCCCC)OC(=O)[C@H](CC(C)C)NC=O
53.3

In the following, a different compound is considered.
Requested field: cell viability. Item: `COc1ccc(S(=O)(=O)N2CCN(S(=O)(=O)c3ccc4c(c3)OCCO4)CC2)cc1` 105
